B1: OR4K15 (parent)
chain: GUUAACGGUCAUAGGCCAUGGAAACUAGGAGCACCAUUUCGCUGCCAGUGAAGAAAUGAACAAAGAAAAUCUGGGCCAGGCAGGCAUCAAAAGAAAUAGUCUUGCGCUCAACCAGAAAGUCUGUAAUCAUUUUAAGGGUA

variants of: B1; assay: self-cleavage, relative activity (ratio to wild type); higher = more cleavage; in vitro, sequencing; the parent is a self-cleaving ribozyme
reported property: self-cleavage
Lab note: jot down the number only; don't add units.

These solved cases illustrate the format of a correct answer.
INSERT INTO results (mutation_spec, reported_measurement) VALUES
  ('A22G A68G', 1.31),
  ('A54G A63G', 1.55),
  ('A60U C113U', 0.27);

We now examine a further variant.
**Q:** Which self-cleavage is reported for this variant? C45U A60G
**A:** 1.29
